# System: M. tuberculosis H37Rv growth inhibition
# test name: M. tuberculosis H37Rv growth inhibitors, H37Rv strain (AID 1626)
# condition details: measured here: IC90 against H37Rv
Field: IC90. Provide a value for each of the compounds that follow.
Numbers only, in µM.

Solved cases (6 shown):
compound	unit text	IC90
COc1ccc(C(=O)CSc2nc(-c3ccccn3)nc(C)c2Cl)cc1	µM	6.84
CCOC(=O)CSc1nnc(-c2cc(OC)c(OC)c(OC)c2)o1	µM	4.38
O=C(Nc1nc(-c2ccccn2)cs1)C12CC3CC(CC(O)(C3)C1)C2	µM	7.8
COc1ccc(Cl)cc1NC(=O)C(C)N1CCN(C/C=C/c2ccccc2)CC1 (centres undefined)	µM	13.3
O=C(/C=C/Sc1ccccc1)c1ccc(Cl)cc1	µM	11.2
O=C1CC(=C(c2ccccc2)c2ccccc2)C(=O)N1CCCCN1CCN(c2ccccc2)CC1	µM	22.7

I would be grateful if you could provide IC90 for each of the following entries.
1. Cn1c(-c2c(N)n(CCc3ccccc3)c3nc4ccccc4nc23)nc2ccccc21
2. CCOC(=O)CSc1nnc(-c2cccc(Br)c2)o1
3. Cc1ccc(S/C=C\C(=O)c2ccccc2)cc1

1. 28.4
2. 15.2
3. 8.53

I would be grateful if you could provide IC90 for each of the following entries.
1. COC(=O)CSc1cc(SCC(=O)OC)c(C#N)c(SCC(=O)OC)c1
2. CCn1c([N+](=O)[O-])nc2c1c(=O)[nH]c(=O)n2C
3. O=C(Nc1nc2ccc(F)cc2s1)c1ccccn1
4. C(=C\c1nc(N2CCCC2)c2ccccc2n1)/c1ccccc1

[2.61, 1.64, 0.248, 7.91]

* * *

# Test system: M. tuberculosis H37Rv growth inhibition
# test name: M. tuberculosis H37Rv growth inhibitors, H37Rv strain (AID 1626)
measured property: IC50

Solved cases (5 shown):
compound	obs value
CC1CCCN(C(=O)C2CCC(CNc3c(N4CCCCC4)c(=O)c3=O)CC2)C1 (stereo unspecified)	11.7 µM
CSc1nc(-c2ccccc2)nc(C(Cl)Cl)n1	1.37 µM
CC1CCN(c2ccc(C=O)o2)CC1	55.9 µM
O=c1nc2c(O)cccn2c2c1c(=O)[nH]c1ccccc12	6.69 µM
O=C(NCc1ccco1)c1cnn2c1NC(c1ccc(Br)cc1)CC2C(F)(F)F (stereo unspecified)	1.51 µM

I would be grateful if you could provide IC50 for each of the following entries.
1. CCOc1ccc(NC(=O)CN2CCN(CC(=O)Nc3ccc(Cl)c(C(F)(F)F)c3)CC2)cc1
2. CN(C)c1ccc(/C=C/C=C2/C(=O)NC(=O)N(c3ccccc3)C2=O)cc1
3. COC(=O)c1ccc(C(=O)OC)c(NC(=O)CN2CCN(c3ccccc3)CC2)c1
4. CCc1ccc(C2c3[nH]c4ccccc4c3CCN2C(=O)c2cc(C)nn2C)cc1 (stereo unspecified)
5. O=C(Nc1ncc(Cc2ccccc2Cl)s1)C1=NCCN1

7.93 µM
2.5 µM
66.1 µM
22.2 µM
3.75 µM

Bench note: what IC50 did "CCn1nnc(NC(=O)c2ccc(-c3ccc(Cl)cc3)o2)n1" show?
19.8 µM

* * *

# System: M. tuberculosis H37Rv growth inhibition
# test name: M. tuberculosis H37Rv growth inhibitors, H37Rv strain (AID 1626)
# condition details: measured here: IC90 against H37Rv
measured property: IC90 (µM)
Give bare numbers, in µM.

molecule	obs value
CN1CCN(c2nc(-c3ccccc3)nc3c2oc2ccccc23)CC1	10.5
Cc1ccc(Sc2cc(C)nc(-c3ccccn3)n2)cc1	15.7

I would be grateful if you could provide IC90 for each of the following entries.
1. Cc1ccccc1OCc1n(CC(=O)OC2CC(C)CCC2C(C)C)c2ccccc2[n+]1C (stereo unspecified)
2. COc1ccccc1/C=C/CN1CCCC(CO)(Cc2cccc(Cl)c2)C1 (stereo unspecified)

5.17
16.4

I would be grateful if you could provide IC90 for each of the following entries.
1. CN(CC(=O)Nc1ccc(Cl)c(Cl)c1)Cc1nnc(-c2ccc(F)cc2)o1
2. Cc1cc(C)cc(N=c2c([N+](=O)[O-])nn(-c3cccc(Cl)c3)n2O)c1

1: 24.1; 2: 9.8

* * *

# Tested on: M. tuberculosis H37Rv growth inhibition
# test name: M. tuberculosis H37Rv growth inhibitors, H37Rv strain (AID 1626)
# condition details: measured here: IC90 against H37Rv
measured property: IC90 (µM)
Answers are plain numbers, in µM.

Solved cases (2 shown):
structure smiles string	obs value
Cc1ccc(-n2nnnc2Sc2nc([N+](=O)[O-])nn2C)cc1C	13.2
Nc1ccc2c(c1)C(=O)C(=O)c1ccccc1-2	13.5

I would be grateful if you could provide IC90 for each of the following entries.
1. CCOC(=O)CSc1nc(N)c(C#N)c(CC(C)C)c1C#N
2. Clc1ccc(SCc2cc(N3CCOCC3)nc(-c3ccccn3)n2)cc1
3. Cc1ccc(Nc2c(-c3ccccn3)nc3ccc(C)cn23)cc1
4. CCCNC(=O)c1nnsc1S(=O)(=O)c1ccc(Cl)cc1
5. CCOC(=O)c1cnc2ccc(OCC)cc2c1NCc1ccccc1
6. CCOC(=O)COc1ccc2c(=O)c(-c3ccc(OC)c(OC)c3)c(C(=O)OCC)oc2c1

[8.77, 41.6, 1.63, 28, 22.2, 5.68]

* * *

# Tested on: M. tuberculosis H37Rv growth inhibition
# test name: M. tuberculosis H37Rv growth inhibitors, H37Rv strain (AID 1626)
# condition details: measured here: Vero cell cytotoxicity
Rule: measured CC50 below 20 µM gets yes; anything equal to or greater than 20 µM gets no.

Reference set, count: 8
compound	target or test system	discrete label
COc1cc(/C=C/C(=O)c2cccc([N+](=O)[O-])c2)cc(OC)c1OC	M. tuberculosis H37Rv growth inhibition	yes
c1ccc(CCNc2ccnc3cc4ccccc4cc23)cc1	M. tuberculosis H37Rv growth inhibition	yes
O=C(Cn1cnc2c(nnn2-c2ccccc2)c1=O)N1CCC(Cc2ccccc2)CC1	M. tuberculosis H37Rv growth inhibition	no
Cc1cc(C)cc(N=c2c([N+](=O)[O-])nn(-c3cccc(Cl)c3)n2O)c1	M. tuberculosis H37Rv growth inhibition	no
Cc1ccc(S(=O)(=O)CCc2nnc(NC(=O)c3ccccn3)s2)cc1	M. tuberculosis H37Rv growth inhibition	no
O=c1cc(C(Cl)(Cl)Cl)oc2c1ccc1ccccc12	M. tuberculosis H37Rv growth inhibition	yes
CCN(CC)CCOC(=O)c1ccc(N/C=C(/C#N)c2nc(-c3cccc(OC)c3)cs2)cc1	M. tuberculosis H37Rv growth inhibition	yes
COC(=O)CCn1c(C)cc(C(=O)COc2ccccc2C(N)=O)c1C	M. tuberculosis H37Rv growth inhibition	no

Hi there! Is CC50 for "Cc1ccc(C)c(N=Nc2nc3ccccc3n2C)c1" below 20 µM, do you know?
no

Hi there! Is CC50 for COc1ccc(NC(=O)CSC2=C(C#N)C(c3ccco3)C(C(=O)Nc3nc4ccccc4s3)=C(C)N2)cc1 (configuration not stated) below 20 µM, do you know?
no

Hi there! Is CC50 for "O=C(c1ccc2c(c1)[nH]c(=S)n1c3ccccc3nc21)N1CCN(c2cccc(Cl)c2)CC1" below 20 µM, do you know?
no

Hi there! Is CC50 for "COc1ccc(/C=C2/Sc3ccc(C(=O)N4CCc5ccccc5C4)cc3NC2=O)cc1" below 20 µM, do you know?
no

* * *

Field: IC90. Provide a value for each of the compounds that follow.
# Tested on: M. tuberculosis H37Rv growth inhibition
# test name: M. tuberculosis H37Rv growth inhibitors, H37Rv strain (AID 1626)
# condition details: measured here: IC90 against H37Rv

Solved cases (4 shown):
compound	measured property	obs value
CCOC(=O)c1ccc(N/C=C/C(=O)c2ccc(OC)c(OC)c2)cc1	IC90	> 100 µM
O=C(Oc1ccccc1Cl)c1ccc(N2CCOCC2)c([N+](=O)[O-])c1	IC90	11.1 µM
Cc1ccc(-c2ccccc2NC(=O)CCl)o1	IC90	> 100 µM
CN1CCN(CCCNC(=O)c2ccc(/C=C3\Sc4ccccc4N(Cc4ccc(F)cc4)C3=O)cc2)CC1	IC90	11.3 µM

I would be grateful if you could provide IC90 for each of the following entries.
1. Cc1nn(-c2ccccc2)c2c1C(c1ccc(O)c(O)c1)N1C(=N2)C(Nc2ccccc2)=Nc2ccccc21 (stereo not given)
2. CCOC(=O)C1=C(CC)Nc2ccccc2N=C1NC(=O)Nc1ccc(Cl)c(Cl)c1
3. CCOC(=O)CSc1ncnc2c1cnn2-c1ccc(C)cc1
4. C(=C\c1nc(N2CCCCCC2)c2ccccc2n1)/c1ccccc1
5. O=C(COc1ccc2c(c1)OCO2)Nc1ccc2c(c1)oc1ccccc12
6. COc1cccc(CNCCc2c[nH]c3ccccc23)c1OCc1ccccc1F

1. 2.11 µM
2. 3.1 µM
3. 22.5 µM
4. 11.1 µM
5. > 100 µM
6. 11.3 µM

* * *

Field: log10(CC50). Provide a value for each of the compounds that follow.
# System: M. tuberculosis H37Rv growth inhibition
# test name: M. tuberculosis H37Rv growth inhibitors, H37Rv strain (AID 1626)
# condition details: measured here: Vero cell cytotoxicity
Values are log10 of CC50 in µM.

Solved cases (8 shown):
compound	obs value
O=C(/C=C/c1ccc2c(c1)OCO2)c1c(O)n(CCc2ccccc2)c(=O)[nH]c1=O	1.44
c1ccc(-c2nc(N3CCCCCC3)c3ccccc3n2)nc1	0.62
CC1CC(C)(C)Nc2ccc(N=O)cc21 (stereo not drawn)	0.83
CCSc1nnc(NC(=O)c2ccc3ccccc3n2)s1	1.58
Cc1nc(Nc2ccc(Cl)c(Cl)c2)sc1C(=O)Nc1ccccc1	1.32
Cc1ccc2nc(/C(C#N)=C\c3ccc([N+](=O)[O-])o3)[nH]c2c1	0.49
O=C(Nc1nc(-c2ccccn2)cs1)c1ccc(Br)s1	0.44
Cc1ccn2c(Nc3ccccc3C)c(-c3ccccn3)nc2c1	0.49

I would be grateful if you could provide log10(CC50) for each of the following entries.
1. O=C(/C=C/c1ccccc1)C1C(=O)c2ccccc2C1=O
2. Cc1cc(Oc2ccc(Cl)cc2)nc(-c2ccccn2)n1

1. 1.51
2. 1.32

Value wanted: log10(CC50) (M. tuberculosis H37Rv growth inhibition) of entry "CCc1nnc(NC(=O)c2cccc(C(=O)Nc3nnc(CC)s3)n2)s1"
0.56
